Tested on: Odoribacter splanchnicus
assay: growth AUC relative to DMSO control (median of replicates) (fraction); higher = more growth (less inhibition), active = hit call of the paper
conditionsUsed: 20 µM; 24 h
observedProperty: growth AUC
Format: numeric value only, no unit, no commentary.

Task item: Look up growth AUC: CCS(=O)c1c(C#N)nn(-c2c(Cl)cc(C(F)(F)F)cc2Cl)c1N (stereo not given)
Reply: 0.971

Task item: Look up growth AUC: `COC(=O)Nc1nc2ccccc2[nH]1`
Reply: 0.997

Task item: Look up growth AUC: O=c1oc2ccccc2c(O)c1C1CC(c2ccc(OCc3ccc(C(F)(F)F)cc3)cc2)Cc2ccccc21 (mixture of isomers)
Reply: 0.989

Task item: Look up growth AUC: `Cc1ccc(-c2c(Cl)nc(C#N)n2S(=O)(=O)N(C)C)cc1`
Reply: 0.989

Task item: Look up growth AUC: `CC(C)N1C(=O)N(c2ccccc2)CSC1=NC(C)(C)C`
Reply: 1.02

---

Test system: Coprococcus comes
assay: growth AUC relative to DMSO control (median of replicates) (fraction); higher = more growth (less inhibition), active = hit call of the paper
conditionsUsed: 20 µM; 24 h
Kindly supply the reported growth AUC values for the records listed here.
Format: numeric value only, no unit, no commentary.

Task item: Record lookup: for Coprococcus comes, what growth AUC belongs to `COc1cnc(OC)n2nc(NS(=O)(=O)c3c(OCC(F)F)cccc3C(F)(F)F)nc12` ?
Reply: 1.01

Task item: Record lookup: for Coprococcus comes, what growth AUC belongs to `COC(=O)c1ccccc1S(=O)(=O)NC(=O)Nc1nc(C)nc(OC)n1` ?
Reply: 0.975

Task item: Record lookup: for Coprococcus comes, what growth AUC belongs to `CCOCCN(C(=O)CCl)C(=C(C)C)c1ccccc1` ?
Reply: 0.999

Task item: Record lookup: for Coprococcus comes, what growth AUC belongs to CCNP(=S)(OC)O/C(C)=C/C(=O)OC(C)C (stereo not given) ?
Reply: 0.987

Task item: Record lookup: for Coprococcus comes, what growth AUC belongs to `COc1cccc(C(=O)NN(C(=O)c2cc(C)cc(C)c2)C(C)(C)C)c1C` ?
Reply: 1.01

Task item: Record lookup: for Coprococcus comes, what growth AUC belongs to CC1CCCCC1NC(=O)Nc1ccccc1 (mixture of isomers) ?
Reply: 0.989

Task item: Record lookup: for Coprococcus comes, what growth AUC belongs to ClC1=C(Cl)C2(Cl)C(CBr)CC1(Cl)C2(Cl)Cl (stereo not given) ?
Reply: 0.994

Task item: Record lookup: for Coprococcus comes, what growth AUC belongs to COCc1c(F)c(F)c(COC(=O)C2C(C=C(C)C)C2(C)C)c(F)c1F (stereo not given) ?
Reply: 0.979

Task item: Record lookup: for Coprococcus comes, what growth AUC belongs to `CC1=C(C(=O)Nc2ccccc2)S(=O)(=O)CCO1` ?
Reply: 0.986

Task item: Record lookup: for Coprococcus comes, what growth AUC belongs to CCc1cnc(C2=NC(C)(C(C)C)C(=O)N2)c(C(=O)O)c1 (stereo not given) ?
Reply: 0.975

Task item: Record lookup: for Coprococcus comes, what growth AUC belongs to `CCOP(=O)(OCC)OCC` ?
Reply: 1.01

Task item: Record lookup: for Coprococcus comes, what growth AUC belongs to `COc1cc(OC)nc(Oc2cccc(Oc3nc(OC)cc(OC)n3)c2C(=O)[O-])n1.[Na+]` ?
Reply: 0.98

Task item: Record lookup: for Coprococcus comes, what growth AUC belongs to `CC(C)N(C(=O)SCC(Cl)=C(Cl)Cl)C(C)C` ?
Reply: 0.981

Task item: Record lookup: for Coprococcus comes, what growth AUC belongs to `CCC(C)(C)C(=O)OC1=C(c2ccc(Cl)cc2Cl)C(=O)OC12CCCCC2` ?
Reply: 0.977

Task item: Record lookup: for Coprococcus comes, what growth AUC belongs to `COP(=S)(OC)Oc1ccc([N+](=O)[O-])c(C)c1` ?
Reply: 0.982

---

Kindly supply the reported growth AUC values for the records listed here.
Test system: Bacteroides dorei
assay: growth AUC relative to DMSO control (median of replicates) (fraction); higher = more growth (less inhibition), active = hit call of the paper
conditionsUsed: 20 µM; 24 h
Format: numeric value only, no unit, no commentary.

Task item: Look up growth AUC: ClC1=C(Cl)C2(Cl)[C@H]3[C@@H]4O[C@@H]4[C@H](Cl)[C@H]3C1(Cl)C2(Cl)Cl (single isomer, unassigned; isomer b)
Reply: 0.933

Task item: Look up growth AUC: `O=C1C=CC(=O)C=C1`
Reply: 1.01

Task item: Look up growth AUC: `CCOP(=S)(OCC)Oc1cnccn1`
Reply: 1.01

Task item: Look up growth AUC: `N#Cc1c(Cl)c(Cl)c(Cl)c(C#N)c1Cl`
Reply: 0.931

Task item: Look up growth AUC: `CCOP(=S)(OCC)SCSCC`
Reply: 0.969

Task item: Look up growth AUC: `COc1ccc(/C(=C/C(=O)N2CCOCC2)c2ccc(Cl)cc2)cc1OC`
Reply: 0.93

Task item: Look up growth AUC: CCC(C)c1cc([N+](=O)[O-])cc([N+](=O)[O-])c1O (stereo not given)
Reply: 0.902

Task item: Look up growth AUC: `COP(=S)(OC)Oc1ccc(S(=O)(=O)N(C)C)cc1`
Reply: 0.962

Task item: Look up growth AUC: `CC(C)OC(=O)C(C(=O)OC(C)C)=C1SCCS1`
Reply: 0.995

Task item: Look up growth AUC: `Clc1ccc(Cl)c(Cl)c1Cl`
Reply: 1.02

Task item: Look up growth AUC: `COc1ncc(F)c2nc(S(=O)(=O)Nc3c(F)cccc3F)nn12`
Reply: 1.01

Task item: Look up growth AUC: `O=C(O)c1nc(Cl)ccc1Cl`
Reply: 1.03

Task item: Look up growth AUC: OC(c1ccc(F)cc1)(c1cncnc1)c1ccccc1Cl (stereo not given)
Reply: 0.966

Task item: Look up growth AUC: CCC(C)n1c(=O)[nH]c(C)c(Br)c1=O (stereo not given)
Reply: 0.952

Task item: Look up growth AUC: `CC(C)(C)N(NC(=O)c1ccc(Cl)cc1)C(=O)c1ccccc1`
Reply: 0.983

---

Kindly supply the reported growth AUC values for the records listed here.
Test system: Bacteroides caccae
assay: growth AUC relative to DMSO control (median of replicates) (fraction); higher = more growth (less inhibition), active = hit call of the paper
conditionsUsed: 20 µM; 24 h
Format: numeric value only, no unit, no commentary.

Task item: Look up growth AUC: `Clc1ccc(C2(Cn3cncn3)OCCO2)c(Cl)c1`
Reply: 0.932

Task item: Look up growth AUC: `O=c1[nH]c2c(c(=O)n1C1CCCCC1)CCC2`
Reply: 1.01

Task item: Look up growth AUC: `C[n+]1ccc(-c2cc[n+](C)cc2)cc1.O.[Cl-].[Cl-]`
Reply: 0.846

Task item: Look up growth AUC: `[Cl][Sn]([c]1ccccc1)([c]1ccccc1)[c]1ccccc1`
Reply: 0.0272

Task item: Look up growth AUC: `Oc1ccc(Cl)cc1Cc1cc(Cl)ccc1O`
Reply: 0.416

Task item: Look up growth AUC: `O=C(O)c1cc(Cl)ccc1Cl`
Reply: 0.998

Task item: Look up growth AUC: `CCSC(=O)N(CC)C1CCCCC1`
Reply: 0.998

Task item: Look up growth AUC: CCOP(=O)(SC(C)CC)N1CCSC1=O (centres undefined)
Reply: 1.02

Task item: Look up growth AUC: CNC1=C(c2cccc(C(F)(F)F)c2)C(=O)C(c2ccccc2)O1 (centres undefined)
Reply: 1.02

Task item: Look up growth AUC: `Clc1cc(Cl)c(Cl)cc1Cl`
Reply: 0.997

Task item: Look up growth AUC: `Oc1c(Cl)ccc(Cl)c1Cl`
Reply: 0.927

Task item: Look up growth AUC: CCOC(=O)C(Cl)Cc1cc(-n2nc(C)n(C(F)F)c2=O)c(F)cc1Cl (centres undefined)
Reply: 0.991

Task item: Look up growth AUC: CC(Cc1ccc(C(C)(C)C)cc1)CN1CCCCC1 (centres undefined)
Reply: 0.963

Task item: Look up growth AUC: `CNC(=O)O/N=C(\C)SC`
Reply: 0.99

Task item: Look up growth AUC: `c1coc(-c2nc3ccccc3[nH]2)c1`
Reply: 0.937

Task item: Look up growth AUC: `CCCN(CCC)c1c([N+](=O)[O-])cc(C(C)C)cc1[N+](=O)[O-]`
Reply: 1.01

Task item: Look up growth AUC: CC(C)(C)C(O)/C(=C/c1ccc(Cl)cc1Cl)n1cncn1 (mixture of isomers)
Reply: 0.869

Task item: Look up growth AUC: `CCN(CC)C(=O)/C(Cl)=C(/C)OP(=O)(OC)OC`
Reply: 1

Task item: Look up growth AUC: `Clc1ccc(C(c2ccc(Cl)cc2)C(Cl)(Cl)Cl)cc1`
Reply: 0.934

Task item: Look up growth AUC: `C[C@@H](Oc1ccc(Oc2nc3ccc(Cl)cc3o2)cc1)C(=O)O`
Reply: 1

Task item: Look up growth AUC: CCOC(=O)C(C)OC(=O)c1cc(Oc2ccc(C(F)(F)F)cc2Cl)ccc1[N+](=O)[O-] (centres undefined)
Reply: 0.95

Task item: Look up growth AUC: CC1(C)CC/C(=C\c2ccc(Cl)cc2)C1(O)Cn1cncn1 (centres undefined)
Reply: 0.976

Task item: Look up growth AUC: `CCOP(=O)(OCC)OP(=O)(OCC)OCC`
Reply: 0.988

Task item: Look up growth AUC: `CS/C(C)=N/OC(=O)N(C)SN(C)C(=O)O/N=C(\C)SC`
Reply: 1.02

Task item: Look up growth AUC: `CC1(C)[C@H](/C=C(\Cl)C(F)(F)F)[C@@H]1C(=O)O[C@@H](C#N)c1cccc(Oc2ccccc2)c1`
Reply: 0.983

Task item: Look up growth AUC: `Nc1c(Cl)c(F)nc(OCC(=O)O)c1Cl`
Reply: 1.01

Task item: Look up growth AUC: `CCOP(=S)(OCC)SCS(=O)(=O)C(C)(C)C`
Reply: 1.02

Task item: Look up growth AUC: `COP(=S)(OC)Oc1c(Cl)cc(C)cc1Cl`
Reply: 0.966

Task item: Look up growth AUC: CCCSP(=S)(OCC)Oc1ccc(SC)cc1 (centres undefined)
Reply: 0.998

Task item: Look up growth AUC: `N#Cc1nn(-c2c(Cl)cc(C(F)(F)F)cc2Cl)c(N)c1SC(F)(F)F`
Reply: 0.941

Task item: Look up growth AUC: `O=[N+]([O-])c1c(Cl)c(Cl)cc(Cl)c1Cl`
Reply: 0.973

Task item: Look up growth AUC: `CCOc1cc(OP(=S)(OC)OC)nc(CC)n1`
Reply: 1.03

Task item: Look up growth AUC: `O=C(O)C(F)(F)C(F)(F)C(F)(F)C(F)(F)C(F)(F)C(F)(F)C(F)(F)F`
Reply: 1

Task item: Look up growth AUC: `CO/C=C(/C(=O)OC)c1ccccc1COc1cccc(C(F)(F)F)n1`
Reply: 0.984

Task item: Look up growth AUC: `CCOC(=O)CCN(Cc1ccccc1)SN(C)C(=O)O/N=C(/C)SC`
Reply: 0.993

Task item: Look up growth AUC: COP(=O)(NC(C)=O)SC (centres undefined)
Reply: 1.01

Task item: Look up growth AUC: `O=C(O)C(F)(F)C(F)(F)C(F)(F)C(F)(F)C(F)(F)C(F)(F)C(F)(F)C(F)(F)F`
Reply: 1

Task item: Look up growth AUC: O=c1oc2ccccc2c(O)c1C1CC(c2ccc(OCc3ccc(C(F)(F)F)cc3)cc2)Cc2ccccc21 (mixture of isomers)
Reply: 0.919

Task item: Look up growth AUC: `Oc1ccc(Cc2ccc(O)cc2)cc1`
Reply: 0.992
